Assay: Lipophilicity, water-octanol partition/distribution coefficient method
Assay type: physicochemical
Details: 1-octanol/phosphate buffered saline; shake-flask 1-octanol/PBS pH 7.4 (500 µL each), 3.7 MBq, stirred 5 min at room temperature, centrifuged, gamma counter, decay-corrected; three experiments in triplicate, mean ± SD
quantity kind: logD
Lab note: record just the number, no unit beside it.

Lookup result for CC(C)C[C@H](NC(=O)C[C@H](O)[C@H](CC(C)C)NC(=O)[C@H](Cc1c[nH]cn1)NC(=O)CNC(=O)[C@@H](NC(=O)[C@H](C)NC(=O)[C@H](Cc1c[nH]c2ccccc12)NC(=O)[C@H](CCC(N)=O)NC(=O)[C@@H](Cc1ccccc1)NC(=O)CN1CCC(NC(=O)CN2CCN(CC(=O)O)CCN(CC(=O)O)CCN(CC(=O)O)CC2)CC1)C(C)C)C(N)=O [[^68Ga]Ga-RM2, metal not drawn] ; measured logD: -2.54

Measured values drawn from paper PMC8398231 for this set.
